// compounds with reported Ki on UniProt:Q9Y5Y6, multi-publication
Target: UniProt:Q9Y5Y6
Sequence (Q9Y5Y6 whole entry): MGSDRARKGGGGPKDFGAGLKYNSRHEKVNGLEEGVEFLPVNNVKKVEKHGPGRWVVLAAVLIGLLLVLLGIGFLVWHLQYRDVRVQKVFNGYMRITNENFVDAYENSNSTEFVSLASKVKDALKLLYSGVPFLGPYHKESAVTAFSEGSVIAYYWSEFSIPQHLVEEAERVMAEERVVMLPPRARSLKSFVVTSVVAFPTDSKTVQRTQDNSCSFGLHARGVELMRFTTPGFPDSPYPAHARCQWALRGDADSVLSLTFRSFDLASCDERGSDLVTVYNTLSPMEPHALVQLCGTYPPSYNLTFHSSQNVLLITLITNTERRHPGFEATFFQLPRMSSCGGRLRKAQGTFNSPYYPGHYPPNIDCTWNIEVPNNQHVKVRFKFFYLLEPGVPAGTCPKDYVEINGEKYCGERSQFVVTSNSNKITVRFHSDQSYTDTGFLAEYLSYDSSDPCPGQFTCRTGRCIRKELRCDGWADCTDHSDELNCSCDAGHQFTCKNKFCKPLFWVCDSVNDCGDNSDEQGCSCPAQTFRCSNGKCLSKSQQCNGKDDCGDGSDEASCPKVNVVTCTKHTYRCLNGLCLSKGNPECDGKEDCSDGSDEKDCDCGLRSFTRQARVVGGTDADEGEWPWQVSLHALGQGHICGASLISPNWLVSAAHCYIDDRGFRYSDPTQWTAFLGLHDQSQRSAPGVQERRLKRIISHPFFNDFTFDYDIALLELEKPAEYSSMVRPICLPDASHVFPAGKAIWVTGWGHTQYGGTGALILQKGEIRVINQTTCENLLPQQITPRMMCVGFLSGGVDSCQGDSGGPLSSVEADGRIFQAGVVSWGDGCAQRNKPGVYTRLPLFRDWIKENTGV

{"columns": ["Compound", "Unit annotation", "Ki"],
 "data": [
  ["COC(=O)[C@H]1CCCCN1C(=O)[C@H](Cc1cccc(C(=N)N)c1)NS(=O)(=O)c1cccc(NC(=O)CCN)c1", "µM", 0.1],
  ["CC(C)CCC(=O)NC(Cc1ccc(O)cc1)C(=O)N[C@H](C(=O)N[C@@H](CCCNC(=N)N)C(=O)c1nc2ccccc2s1)C(C)C (single isomer, unassigned)", "µM", 0.028],
  ["N=C(N)c1ccc(Oc2cc(C(=O)N3CCC(CCN)CC3)cc(Oc3ccc(C(=N)N)cc3)n2)cc1", "µM", 0.1],
  ["Cc1ccc(S(=O)(=O)N[C@@H](Cc2cccc(C(=N)N)c2)C(=O)N2CCC[C@H](NC(=O)OCc3ccccc3)C2)cc1", "µM", 1.2],
  ["N=C(N)c1ccc(Oc2ccc(NS(=O)(=O)c3ccc4ccccc4c3)c(Oc3ccc(C(=N)N)cc3)n2)cc1", "µM", 0.04],
  ["N=C(N)c1cccc(C[C@H](NS(=O)(=O)c2cccc(NC(=O)CCN)c2)C(=O)N2CCC(CCNC(=O)Nc3ccccc3)CC2)c1", "µM", 0.011]
]}
